Active and inactive are the calls of the source.
Below are IC50 values measured for UniProt:P03372.
Sequence (P03372 whole entry): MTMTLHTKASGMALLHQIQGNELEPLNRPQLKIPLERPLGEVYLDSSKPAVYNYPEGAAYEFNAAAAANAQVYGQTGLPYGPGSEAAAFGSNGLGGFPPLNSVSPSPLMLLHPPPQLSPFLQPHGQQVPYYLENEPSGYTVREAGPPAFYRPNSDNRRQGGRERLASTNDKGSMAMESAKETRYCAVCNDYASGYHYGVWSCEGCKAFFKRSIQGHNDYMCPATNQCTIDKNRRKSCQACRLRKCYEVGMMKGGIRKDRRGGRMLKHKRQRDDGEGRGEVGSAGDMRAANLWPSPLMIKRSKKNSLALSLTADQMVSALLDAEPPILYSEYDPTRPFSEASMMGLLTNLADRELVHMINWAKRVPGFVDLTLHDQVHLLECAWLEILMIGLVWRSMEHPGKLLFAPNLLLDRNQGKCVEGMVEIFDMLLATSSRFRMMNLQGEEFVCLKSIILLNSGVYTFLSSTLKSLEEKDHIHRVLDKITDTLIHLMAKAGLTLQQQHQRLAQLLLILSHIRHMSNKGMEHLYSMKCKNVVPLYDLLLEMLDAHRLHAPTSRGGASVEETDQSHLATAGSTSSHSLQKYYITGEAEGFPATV

Example molecules with recorded IC50:
Cc1sc2ncnc(NCc3ccco3)c2c1C
35.3 µM (not active)
C=CCn1c(COc2cccc(C)c2)nnc1SCC(=O)NC(=O)NCc1ccco1
14.8 µM (active)
Nc1ccccc1N/C=C1\C(=O)NC(=O)N(CCC2=CCCCC2)C1=O
> 50 µM (not active)
Cc1ccccc1CSCC(=O)NC(=O)NCc1ccco1
9.27 µM (active)

Now, please, on to the next molecule.
Per the records, this molecule ( CCOC(=O)[N-]c1cn(N2CCOCC2)n[o+]1 ) has IC50 equal to 24.7 µM (active)

###

Listing: AC50 of selected molecules
- assayed_target: Cytochrome P450 2C19 (Homo sapiens)
- Sequence (P33261 whole entry): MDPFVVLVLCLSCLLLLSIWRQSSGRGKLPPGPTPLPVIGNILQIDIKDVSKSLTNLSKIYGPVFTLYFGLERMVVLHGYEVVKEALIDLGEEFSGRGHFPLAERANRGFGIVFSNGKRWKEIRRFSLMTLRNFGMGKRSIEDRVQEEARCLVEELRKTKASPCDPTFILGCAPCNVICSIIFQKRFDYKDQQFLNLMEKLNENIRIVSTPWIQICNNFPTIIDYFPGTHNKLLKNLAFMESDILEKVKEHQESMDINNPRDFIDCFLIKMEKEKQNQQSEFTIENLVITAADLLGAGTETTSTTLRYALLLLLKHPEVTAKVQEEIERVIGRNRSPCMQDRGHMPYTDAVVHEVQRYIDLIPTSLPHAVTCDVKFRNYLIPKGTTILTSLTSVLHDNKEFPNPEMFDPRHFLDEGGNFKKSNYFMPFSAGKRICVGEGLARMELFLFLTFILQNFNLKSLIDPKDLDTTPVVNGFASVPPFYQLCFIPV
- measurement_notes: Cytochrome panel assay with activity outcomes. Panel member name: p450-cyp2c19 Compounds with AC50 equal or less than 10 uM are considered active
- Assay type: functional
- measurement_context: read-out: AC50

Looking up CSc1nc2c(c(C(F)(F)F)n1)CC(C)CC2 (stereo not drawn) , I see its AC50 listed as 39.8 µM (inconclusive)

In plain terms, Cn1c(=O)c2nc(-c3ccccc3)oc2c2ccccc21 has a documented AC50 of 28.2 µM (inconclusive)

# molecule CCCN1C(=O)C(NC(C)=O)c2cc(OC)ccc21 (stereo not drawn) ; its AC50 = 22.4 µM (inconclusive)

###

- assayed_target: Eukaryotic translation initiation factor 4E (Mus musculus)
- Sequence (P63073 whole entry): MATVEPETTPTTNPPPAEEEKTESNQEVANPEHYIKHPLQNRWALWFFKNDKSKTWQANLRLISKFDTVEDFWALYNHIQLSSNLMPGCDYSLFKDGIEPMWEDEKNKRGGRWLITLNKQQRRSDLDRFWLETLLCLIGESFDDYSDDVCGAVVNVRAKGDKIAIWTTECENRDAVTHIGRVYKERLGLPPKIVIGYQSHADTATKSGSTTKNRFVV
- measurement_notes: blockers of eIF4G binding by eIF4E – biochemical, TR-FRET, dose response (AID 855);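 note: potency for disrupting eIF4E binding to eIF4GI seen as loss of FRET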
- Format: functional
Active and inactive are the calls of the source.
measurement_name: IC50

As a guide, the following entries are already answered.
COc1cc(NC(=O)c2ccccc2)c(OC)cc1NC(=O)Cc1cccs1
50 µM (inactive)
CCCCC(=O)Nc1ccc2oc(-c3ccncc3)nc2c1
> 64 µM (inactive)

Query CCCOC(=O)c1ccc(OCC(O)CN2CCN(C(=O)c3ccccc3)CC2)cc1 (stereo not drawn) yields IC50 of > 64 µM (inactive)

###

// reported IC50 per item
- assayed_target: SUMO-activating enzyme (Homo sapiens, UniProt Q9UBT2)
- Sequence (Q9UBE0 whole entry): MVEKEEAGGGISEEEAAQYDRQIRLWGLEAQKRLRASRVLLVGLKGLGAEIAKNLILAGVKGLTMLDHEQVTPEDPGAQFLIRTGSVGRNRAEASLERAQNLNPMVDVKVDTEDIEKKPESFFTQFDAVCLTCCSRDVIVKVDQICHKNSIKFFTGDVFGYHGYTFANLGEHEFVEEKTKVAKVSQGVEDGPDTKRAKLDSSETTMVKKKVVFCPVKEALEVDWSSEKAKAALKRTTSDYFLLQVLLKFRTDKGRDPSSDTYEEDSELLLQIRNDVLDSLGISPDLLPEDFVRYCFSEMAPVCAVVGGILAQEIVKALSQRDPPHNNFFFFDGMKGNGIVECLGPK
- Sequence (Q9UBT2 whole entry): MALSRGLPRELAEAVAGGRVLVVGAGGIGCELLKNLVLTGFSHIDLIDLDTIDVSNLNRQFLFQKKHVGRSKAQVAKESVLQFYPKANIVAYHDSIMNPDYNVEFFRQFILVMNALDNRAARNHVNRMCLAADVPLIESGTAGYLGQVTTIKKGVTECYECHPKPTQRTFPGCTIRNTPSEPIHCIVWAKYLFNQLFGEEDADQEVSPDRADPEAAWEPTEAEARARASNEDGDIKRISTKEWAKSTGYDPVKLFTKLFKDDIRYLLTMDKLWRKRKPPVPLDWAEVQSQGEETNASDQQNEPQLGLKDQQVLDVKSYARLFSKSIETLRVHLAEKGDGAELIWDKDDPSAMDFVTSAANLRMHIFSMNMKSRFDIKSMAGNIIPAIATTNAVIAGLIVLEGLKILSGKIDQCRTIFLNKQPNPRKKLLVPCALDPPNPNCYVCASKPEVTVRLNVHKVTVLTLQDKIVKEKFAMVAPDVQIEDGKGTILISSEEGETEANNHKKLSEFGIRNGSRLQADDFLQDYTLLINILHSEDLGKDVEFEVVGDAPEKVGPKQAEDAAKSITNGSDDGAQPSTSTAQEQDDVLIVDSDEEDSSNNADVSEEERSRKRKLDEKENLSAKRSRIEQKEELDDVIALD
- measurement_notes: blockers of UBC9-mediated SUMO conjugation – biochemical, AlphaScreen, SUMOylation inhibitor project, confirmation (AID 2018)
- Type: functional
The source made the active and inactive calls.

CC(=O)NC1C(=O)N(CCN2CCOCC2)c2ccc(F)cc21 (stereo unspecified)
5.82 µM (active)
O=C(N/N=C/c1ccc(O)c(O)c1)N/N=C/c1ccc(O)c(O)c1
0.69 µM (active)
CSc1nnc(-c2ccco2)c(-c2ccco2)n1
2.91 µM (active)
CCN(CC)CCOC(=O)c1ccc(N/C=C(/C#N)c2nc(-c3ccc(OC)c(OC)c3)cs2)cc1
7.12 µM (active)
COc1ccc2[nH]c3c(=O)n(CCCC(=O)NC4CCC(C)CC4)c(=S)[nH]c3c2c1 (stereo unspecified)
38.1 µM (active)

Let us examine a further case.
# compound O=C(N=Nc1c(O)[nH]c2ccc([N+](=O)[O-])cc12)c1ccccc1Cl ; its IC50 = 7.02 µM (active)

###

- assayed_target: Small ubiquitin-related modifier 1 (Homo sapiens, UniProt P63165)
- Sequence (P63165 whole entry): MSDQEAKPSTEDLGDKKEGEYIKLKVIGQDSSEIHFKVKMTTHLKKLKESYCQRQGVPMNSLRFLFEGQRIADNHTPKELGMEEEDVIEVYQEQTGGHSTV
- measurement_notes: SUMO1 protein-protein binding blockers, potency – biochemical, FRET, dose response (AID 624383)
- Type: functional
- measurement_context: read-out: IC50_Mean
Active and inactive are the calls of the source.
Your response should consist of one outcome taken from active, inactive

Look over these answered cases.
O=C(O)c1cc(-c2ccco2)nn1-c1cccc(Cl)c1
inactive
O=C(COC(=O)c1ccccc1)Nc1ncc([N+](=O)[O-])s1
inactive
O=C1NC[C@@H](Cc2ccc(O)cc2)N(CCc2cc(C(F)(F)F)cc(C(F)(F)F)c2)C1=O
active
O=C(COC(=O)c1ccc(Cl)c(S(=O)(=O)N2CCOCC2)c1)Nc1ccc2[nH]c(O)nc2c1
active

# next compound below
For O=C(O)c1ccc(-c2ccc(/C=c3/sc4nc5ccccc5n4c3=O)o2)cc1Cl , what call appears in the results of this test?
active

###

- assayed_target: 72 kDa type IV collagenase (Homo sapiens)
- Sequence (P08253 whole entry): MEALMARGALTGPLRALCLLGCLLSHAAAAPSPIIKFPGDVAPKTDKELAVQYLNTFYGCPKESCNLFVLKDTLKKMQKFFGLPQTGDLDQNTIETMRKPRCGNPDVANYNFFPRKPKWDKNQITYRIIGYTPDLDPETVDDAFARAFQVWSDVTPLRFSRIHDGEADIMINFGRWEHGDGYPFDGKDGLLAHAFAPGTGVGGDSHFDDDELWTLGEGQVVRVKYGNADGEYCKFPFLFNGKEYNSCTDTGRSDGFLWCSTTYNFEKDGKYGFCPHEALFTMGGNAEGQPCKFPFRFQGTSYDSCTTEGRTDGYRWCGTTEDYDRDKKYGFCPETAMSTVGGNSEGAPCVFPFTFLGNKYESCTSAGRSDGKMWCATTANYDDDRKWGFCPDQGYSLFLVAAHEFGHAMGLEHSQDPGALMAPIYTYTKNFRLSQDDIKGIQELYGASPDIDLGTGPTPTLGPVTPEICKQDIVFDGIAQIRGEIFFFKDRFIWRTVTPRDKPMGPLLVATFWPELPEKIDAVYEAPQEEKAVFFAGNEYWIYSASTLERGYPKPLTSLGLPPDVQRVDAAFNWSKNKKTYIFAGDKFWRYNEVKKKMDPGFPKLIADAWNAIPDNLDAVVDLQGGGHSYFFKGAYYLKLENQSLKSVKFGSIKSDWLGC
- measurement_notes: Dose Response validation of uHTS RPN11 inhibitor hits using a MMP-2 Fluorescence assay.
- Type: functional
Active and inactive are the calls of the source.
The reply should be one of these categories: 1 = active, 0 = inactive

Look over these answered cases.
CC(=O)Nc1ccc(/C(C)=N/NC(=O)c2ccc(COc3ccccc3Cl)o2)cc1
0
O=C(O)CN1C(=O)/C(=C\c2ccc(OC(=O)c3ccco3)cc2)SC1=S
0
Cc1ccc(C(=O)CSc2cc(C)nc(=O)[nH]2)cc1
1

For CCN(CC)CCOC(=O)c1ccc(N/C=C(/C#N)c2nc(-c3ccc(OC)c(OC)c3)cs2)cc1 , which call appears in the assay record?
0

###

- assayed_target: Zinc finger protein mex-5 (Caenorhabditis elegans)
- Sequence (Q9XUB2 whole entry): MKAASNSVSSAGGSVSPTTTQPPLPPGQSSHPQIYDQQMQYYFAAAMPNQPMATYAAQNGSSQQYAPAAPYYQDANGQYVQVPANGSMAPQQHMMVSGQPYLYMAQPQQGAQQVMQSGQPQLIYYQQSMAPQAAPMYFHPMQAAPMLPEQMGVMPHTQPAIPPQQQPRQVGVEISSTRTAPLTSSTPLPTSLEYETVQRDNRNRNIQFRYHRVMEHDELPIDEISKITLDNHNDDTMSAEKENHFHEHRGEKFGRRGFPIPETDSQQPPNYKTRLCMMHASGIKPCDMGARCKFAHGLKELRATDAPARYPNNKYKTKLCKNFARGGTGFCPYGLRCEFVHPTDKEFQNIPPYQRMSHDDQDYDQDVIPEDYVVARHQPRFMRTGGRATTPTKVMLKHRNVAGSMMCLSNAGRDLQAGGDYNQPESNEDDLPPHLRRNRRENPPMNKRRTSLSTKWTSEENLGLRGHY
- measurement_notes: potency of MEX-5 RNA-binding blockers – biochemical, C. elegans, fluorescence polarization, dose response (AID 1960)
Overview of recorded EC50 for various compounds

C=CCOn1c(=O)c(-c2cc3ccccc3o2)[n+]([O-])c2ccccc21
69.7 µM (inconclusive)
O=C(N/N=C/c1ccc(O)c(O)c1)N/N=C/c1ccc(O)c(O)c1
4.86 µM (inconclusive)
O=C(O)C1Nc2c(O)cc(Cl)c([N+](=O)[O-])c2C2C=CCC12 (centres undefined)
19.1 µM (inconclusive)

Assay Zinc finger protein mex-5 (Caenorhabditis elegans), sample CC1CCN(c2nc3ccccc3nc2C(C#N)C(=O)NC2CCCCC2)CC1 (centres undefined) , EC50 read: > 300 µM (not active)

The recorded EC50 with Zinc finger protein mex-5 (Caenorhabditis elegans) for CCOC(=O)/C=c1\s/c(=C\c2ccc(C#N)cc2)c(=O)n1CC(=O)NCc1ccco1 was > 300 µM (not active)

For CCCCOC(=O)Cn1c2ccc(OC)cc2c2nc3ccccc3nc21 on Zinc finger protein mex-5 (Caenorhabditis elegans), measured EC50 was > 300 µM (not active)

The compound Cc1c(CN2CCCCC2)c(O)n(CCCO)c(=O)c1C#N , when measured on Zinc finger protein mex-5 (Caenorhabditis elegans), yielded EC50 of > 300 µM (not active)

Measured EC50 for this entry CN(C)c1ccc(-c2nnc(-c3ccc(S(=O)(=O)C(F)F)cc3)o2)cc1 on Zinc finger protein mex-5 (Caenorhabditis elegans): 31.4 µM (inconclusive)

Given the compound Cc1cccc(NC(=O)c2sc3nc(-c4ccccc4)cn3c2C)n1 and test system Zinc finger protein mex-5 (Caenorhabditis elegans), the measured EC50 is > 300 µM (not active)

###

The entries below come with measured IC50 values attached.
- assayed_target: Carboxy-terminal domain RNA polymerase II polypeptide A small phosphatase 1 (Homo sapiens, UniProt Q9GZU7)
- Sequence (Q9GZU7 whole entry, the tested form may be a part): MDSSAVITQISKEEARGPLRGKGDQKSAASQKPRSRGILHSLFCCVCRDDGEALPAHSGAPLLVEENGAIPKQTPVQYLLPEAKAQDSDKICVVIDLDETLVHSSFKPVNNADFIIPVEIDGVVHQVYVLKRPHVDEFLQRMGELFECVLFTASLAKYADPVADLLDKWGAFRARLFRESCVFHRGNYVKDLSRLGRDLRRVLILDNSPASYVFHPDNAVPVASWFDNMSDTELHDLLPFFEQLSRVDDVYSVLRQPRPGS
- measurement_notes: CTDSP1 inhibitors, concentration-response, biochemical, absorbance readout, ultra-high-throughput screen actives (AID 540297)
- Type: functional
Calls of active or inactive are those of the source.

O=C(c1ccc([N+](=O)[O-])cc1)c1cc2ccc(O)cc2oc1=O
10.8 µM (active)
O=C(N/N=C/c1cn(-c2ccccc2)nc1-c1ccc2c(c1)OCCO2)c1ccncc1
6.51 µM (active)
COc1cc(/C=N/NC2=NC(=O)C(CC(=O)O)S2)ccc1OCc1ccc(Cl)cc1 (configuration not stated)
12.4 µM (active)
O=C1N=C(NS(=O)(=O)Cc2ccccc2)S/C1=C1\C(=O)Nc2ccccc21
16.7 µM (active)
COc1ccc(C(CC(=O)N2CCCCC2)c2c(OC)cc(OC)c3c(-c4ccccc4)cc(=O)oc23)cc1 (configuration not stated)
4.7 µM (active)

The compound identified as CC(=O)Nc1ccc(/C(C)=N/NC(=O)c2ccc(COc3ccccc3Cl)o2)cc1 registered its IC50 at 7.9 µM (active)

Lab note: measured IC50 of COc1cc(NC(=O)c2ccccc2)c(OC)cc1NC(=O)Cc1cccs1 was 3.86 µM (active)

###

The entries below come with measured AC50 values attached.
- assayed_target: Paired box protein Pax-8 (Homo sapiens, UniProt Q06710)
- Sequence (Q06710 whole entry): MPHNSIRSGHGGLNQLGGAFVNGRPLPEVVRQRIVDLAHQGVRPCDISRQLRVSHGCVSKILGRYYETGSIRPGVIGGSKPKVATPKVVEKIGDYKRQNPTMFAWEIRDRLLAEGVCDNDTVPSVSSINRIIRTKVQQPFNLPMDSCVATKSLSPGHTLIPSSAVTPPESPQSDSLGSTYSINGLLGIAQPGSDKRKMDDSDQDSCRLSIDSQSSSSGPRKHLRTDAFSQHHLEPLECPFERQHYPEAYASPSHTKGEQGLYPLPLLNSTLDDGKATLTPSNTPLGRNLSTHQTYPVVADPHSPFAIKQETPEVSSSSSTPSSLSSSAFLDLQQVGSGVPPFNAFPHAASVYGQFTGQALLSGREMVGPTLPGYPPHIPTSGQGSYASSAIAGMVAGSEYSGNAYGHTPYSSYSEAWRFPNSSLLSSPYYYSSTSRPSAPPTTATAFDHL
- measurement_notes: PAX8 transcriptional activity inhibition in RMG-I – RMG-I cells, luciferase, cherry-pick, dose response (AID 687027);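 note: luciferase reporter driven by Pax8 target thyroperoxidase promoter measured by SteadyGlo luminescence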
- Type: functional, cell-based
Active and inactive are the calls of the source.

CC(=O)[C@@]1(O)Cc2c(O)c3c(c(O)c2[C@H](O[C@H]2C[C@H](N)[C@H](O)[C@H](C)O2)C1)C(=O)c1ccccc1C3=O
3.77 µM (active)
C[C@H]1O[C@@H](O[C@H]2[C@@H](O)C[C@H](O[C@H]3[C@@H](O)C[C@H](O[C@H]4CC[C@@]5(C)[C@H](CC[C@@H]6[C@@H]5C[C@@H](O)[C@]5(C)[C@@H](C7=CC(=O)OC7)CC[C@]65O)C4)O[C@@H]3C)O[C@@H]2C)C[C@H](O)[C@@H]1O [DIGOXIN]
0.414 µM (active)
C[C@@H]1CN([C@H](C)CO)S(=O)(=O)c2ccc(C#Cc3ccncc3)cc2O[C@H]1CN(C)C(=O)C1CCCCC1
3.13 µM (active)

Next item in the queue.
Value of AC50 reported for the compound C[C@H]1CN([C@@H](C)CO)S(=O)(=O)c2ccc(C#Cc3ccccc3F)cc2O[C@H]1CN(C)C(=O)c1ccc2c(c1)OCO2 is 5.76 µM (active)
